test-system: BACE1 (HTRF long substrate and FRET short substrate assays of Example 9D)
assay-notes: cell-based or functional assay
experimental-endpoint: EC50, HTRF long substrate (nM)
Provide the reading as a plain figure in nM.

The cases that follow already have their EC50, HTRF long substrate on record.
binder	readout-units	EC50, HTRF long substrate
5894 (antibody, V domains shown, anti-BACE1 IgG) VH: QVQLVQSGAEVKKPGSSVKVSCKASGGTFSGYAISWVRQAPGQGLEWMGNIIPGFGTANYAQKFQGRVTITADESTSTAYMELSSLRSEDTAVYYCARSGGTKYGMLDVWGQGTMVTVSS VL: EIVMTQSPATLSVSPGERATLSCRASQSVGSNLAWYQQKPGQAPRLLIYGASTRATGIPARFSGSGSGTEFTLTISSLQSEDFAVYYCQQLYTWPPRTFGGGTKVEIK	nM	1.79
5891 (antibody, V domains shown, anti-BACE1 IgG) VH: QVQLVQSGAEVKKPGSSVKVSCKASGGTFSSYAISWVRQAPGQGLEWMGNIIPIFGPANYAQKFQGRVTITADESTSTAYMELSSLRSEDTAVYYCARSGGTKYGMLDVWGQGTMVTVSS VL: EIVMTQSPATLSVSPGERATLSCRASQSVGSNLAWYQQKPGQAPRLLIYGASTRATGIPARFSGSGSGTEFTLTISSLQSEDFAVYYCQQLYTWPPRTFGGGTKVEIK	nM	3.03
5888 (antibody, V domains shown, anti-BACE1 IgG) VH: QVQLVQSGAEVKKPGSSVKVSCKASGGTFWKYAISWVRQAPGQGLEWMGNIIPGFGTANYAQKFRGRVTITADESTSTAYMELSSLRSEDTAVYYCARSGGTKYGMLDVWGQGTMVTVSS VL: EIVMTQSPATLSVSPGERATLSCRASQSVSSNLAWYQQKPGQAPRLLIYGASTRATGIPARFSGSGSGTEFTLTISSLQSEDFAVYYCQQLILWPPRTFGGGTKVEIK	nM	2.5
5893 (antibody, V domains shown, anti-BACE1 IgG) VH: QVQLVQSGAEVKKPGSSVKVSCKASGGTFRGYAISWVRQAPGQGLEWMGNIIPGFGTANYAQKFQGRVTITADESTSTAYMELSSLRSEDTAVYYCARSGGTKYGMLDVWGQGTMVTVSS VL: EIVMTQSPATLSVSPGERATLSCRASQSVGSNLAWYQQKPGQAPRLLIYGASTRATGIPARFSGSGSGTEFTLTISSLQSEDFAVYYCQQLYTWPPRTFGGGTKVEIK	nM	3.59

Switching to the query record.
# query: EC50, HTRF long substrate of entry 5905 (antibody, V domains shown, anti-BACE1 IgG) VH: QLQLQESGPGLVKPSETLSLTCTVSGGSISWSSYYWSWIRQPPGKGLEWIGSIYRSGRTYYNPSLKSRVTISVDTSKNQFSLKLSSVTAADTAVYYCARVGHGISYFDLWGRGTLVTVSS VL: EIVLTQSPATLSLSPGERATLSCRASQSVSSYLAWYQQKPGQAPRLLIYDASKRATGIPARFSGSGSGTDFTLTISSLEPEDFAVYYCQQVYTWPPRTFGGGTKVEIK
3.91
